Measured OD450, listed per entry for reference.
- Tested on: T1, monkey CD22 protein (ACROBiosystems, catalog number SI2-R52Ha) (monkey, UniProt F6W485 20-688)
- T1 construct: commercial protein; also called monkey CD22-ECD; monkey CD22-ECD-His
- T1 sequence: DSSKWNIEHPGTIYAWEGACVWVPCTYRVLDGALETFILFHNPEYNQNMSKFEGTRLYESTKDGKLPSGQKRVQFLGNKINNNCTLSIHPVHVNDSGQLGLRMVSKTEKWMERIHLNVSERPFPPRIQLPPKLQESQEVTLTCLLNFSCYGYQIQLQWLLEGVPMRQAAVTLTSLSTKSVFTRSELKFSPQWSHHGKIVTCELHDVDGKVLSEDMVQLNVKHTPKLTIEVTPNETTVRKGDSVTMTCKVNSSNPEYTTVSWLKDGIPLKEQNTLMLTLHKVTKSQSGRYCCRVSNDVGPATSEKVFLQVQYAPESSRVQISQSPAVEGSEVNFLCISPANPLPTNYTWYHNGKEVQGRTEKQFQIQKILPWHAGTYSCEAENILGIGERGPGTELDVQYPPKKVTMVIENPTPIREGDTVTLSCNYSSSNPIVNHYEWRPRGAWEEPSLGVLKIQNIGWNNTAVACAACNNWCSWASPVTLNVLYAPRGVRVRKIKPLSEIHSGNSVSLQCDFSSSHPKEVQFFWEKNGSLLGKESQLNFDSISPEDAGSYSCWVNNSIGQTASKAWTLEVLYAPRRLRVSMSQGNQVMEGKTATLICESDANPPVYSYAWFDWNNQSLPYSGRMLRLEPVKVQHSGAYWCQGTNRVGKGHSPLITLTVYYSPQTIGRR
- Assay notes: ELISA, coated monkey CD22 protein, antibody 0.0001 nM
- Method: In order to detect the binding activity of CD22 human-murine chimeric antibodies to CD22 protein, the purified human CD22-ECD-His protein obtained in Example 2 was diluted with PBS to a final concentration of 2 μg/mL, and then added to 96-well ELISA plate at 100 μl/well. The plate was sealed with plastic film and incubated overnight at 4° C., the plate was washed 2 times with PBS the next day, and then a blocking solution [PBS+2% (w/w) BSA] was added for blocking at room temperature for 2 hours. […]
Recorded endpoint: OD450 (OD450)

- F2.180.16 (antibody, human IgG1, lambda, V domains shown, human-murine chimeric IgG1 lambda) VH: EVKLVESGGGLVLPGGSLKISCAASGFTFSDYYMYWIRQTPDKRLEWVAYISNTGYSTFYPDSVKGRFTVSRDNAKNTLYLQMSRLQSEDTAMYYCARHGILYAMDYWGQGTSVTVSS VL: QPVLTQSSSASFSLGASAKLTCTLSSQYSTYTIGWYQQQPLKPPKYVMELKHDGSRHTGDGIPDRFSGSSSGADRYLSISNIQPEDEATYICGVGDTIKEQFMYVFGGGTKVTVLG: 0.05
- m971-hIgG1 (antibody, V domains shown, control anti-CD22 antibody; variable regions from US 8,591,889 on human IgG1 constant regions) VH: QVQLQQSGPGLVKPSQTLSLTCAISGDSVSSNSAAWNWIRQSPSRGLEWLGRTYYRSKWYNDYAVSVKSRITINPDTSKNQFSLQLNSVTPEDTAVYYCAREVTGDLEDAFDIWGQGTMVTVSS VL: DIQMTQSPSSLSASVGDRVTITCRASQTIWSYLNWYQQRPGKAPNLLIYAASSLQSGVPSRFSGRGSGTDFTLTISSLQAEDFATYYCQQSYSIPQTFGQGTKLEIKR: 0.07

Recorded values, source patent US20240084003A1.
